Target Entity: α1-adrenergic receptor
Test Name: Binding to the α1-adrenergic receptor (displacement of [3H]prazosin, rat cortex)
Design: species or system male Sprague-Dawley rat
Condition Parameters: mean of at least 3 experimentations

| Compound | Censoring Operator | pKi α1 |
| --- | --- | --- |
| Cc1ccnc(N2CCN([C@H]3CC[C@H](Oc4cnn(C)c(=O)n4)CC3)CC2)n1 [Compound 10] | = | 5.95 |
| Cn1c(=O)cnn([C@H]2CC[C@H](N3CCN(c4ncccn4)CC3)CC2)c1=O [Compound 4] | < | 5.0 |
| O=C(NCCN1CCN(c2cccc3c2OC[C@H](CO)O3)CC1)c1ccc(F)cc1 [Flesinoxan, reference compound] | = | 6.50 |
| Cn1ncc(O[C@H]2CC[C@H](N3CCN(c4ncccn4)CC3)CC2)nc1=O [Compound 9] | < | 5.0 |

* * *

Listing of recorded ED50 by entry.
Target Entity: 5-HT1A receptor (Rattus norvegicus, UniProt P19327)
Test Name: 5-HT syndrome (serotoninergic syndrome) in the male rat
Format: in vivo, male rat (Sprague-Dawley)
Set-up: carried out with the male rat (Sprague-Dawley); from tissue; host or cells: whole living rat (Sprague-Dawley)
Condition Parameters: LLR, po, read-out: ED50 LLR (lower lip retraction)

| Compound | ED50 / mg/kg |
| --- | --- |
| Cc1ccnc(N2CCN([C@H]3CC[C@H](n4ncc(=O)n(C)c4=O)CC3)CC2)n1 | 0.08 |
| Cn1ncc(O[C@H]2CC[C@H](NCC3COc4ccccc4O3)CC2)nc1=O (relative stereo) | 0.08 |
| O=C(NCCN1CCN(c2cccc3c2OC[C@H](CO)O3)CC1)c1ccc(F)cc1 [Flesinoxan, reference compound] | 1.25 |
| Cn1ncc(O[C@H]2CC[C@H](N3CCN(c4ncc(F)cn4)CC3)CC2)nc1=O | 0.31 |
| Cc1cc(C)nc(N2CCN([C@H]3CC[C@H](Oc4cnn(C)c(=O)n4)CC3)CC2)n1 | 0.02 |
| O=C1CC2(CCCC2)CC(=O)N1CCCCN1CCN(c2ncccn2)CC1 [Buspirone, reference compound] | 2.5 |
| Cn1ncc(O[C@H]2CC[C@H](N3CCN(c4nccc(Cl)n4)CC3)CC2)nc1=O | 0.08 |
| COc1ccnc(N2CCN([C@H]3CC[C@H](Oc4cnn(C)c(=O)n4)CC3)CC2)n1 | 0.08 |

* * *

Listing of recorded Ki by entry.
Target Entity: D2 dopaminergic receptor (Rattus norvegicus)
Construct: Brains from male Sprague-Dawley 180-200 g rats; tissue Iffa Credo, France (animals); host or cells: rat brain striatum
Sequence (P61169 whole entry): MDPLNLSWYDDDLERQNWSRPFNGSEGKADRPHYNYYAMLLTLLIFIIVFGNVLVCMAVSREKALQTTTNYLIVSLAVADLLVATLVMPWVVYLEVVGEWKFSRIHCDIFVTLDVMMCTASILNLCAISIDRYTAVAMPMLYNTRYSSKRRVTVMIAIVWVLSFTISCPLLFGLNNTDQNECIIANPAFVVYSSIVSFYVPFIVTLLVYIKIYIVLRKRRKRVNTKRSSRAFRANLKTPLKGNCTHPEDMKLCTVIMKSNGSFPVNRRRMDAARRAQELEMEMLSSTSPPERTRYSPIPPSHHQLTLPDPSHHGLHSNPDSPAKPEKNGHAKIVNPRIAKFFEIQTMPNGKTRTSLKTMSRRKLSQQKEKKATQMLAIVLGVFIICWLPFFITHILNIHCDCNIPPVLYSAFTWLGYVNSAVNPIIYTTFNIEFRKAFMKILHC
Test Name: Binding to the D2 dopaminergic receptor (displacement of [3H]YM-09151-2, rat striatum)
Design: species or system male Sprague-Dawley rat
Condition Parameters: read-out: pKi D2 (converted)
Readout Name: Ki

| Compound | Target Entity | Test Result |
| --- | --- | --- |
| Cc1cc(C)nc(N2CCN([C@H]3CC[C@H](Oc4cnn(C)c(=O)n4)CC3)CC2)n1 [Compound 11] | D2 dopaminergic receptor (Rattus norvegicus) | > 10 µM |
| O=C(NCCN1CCN(c2cccc3c2OC[C@H](CO)O3)CC1)c1ccc(F)cc1 [Flesinoxan, reference compound] | D2 dopaminergic receptor (Rattus norvegicus) | 0.0891 µM |
| Cn1ncc(O[C@H]2CC[C@H](N3CCN(c4nccc(Cl)n4)CC3)CC2)nc1=O [Compound 12] | D2 dopaminergic receptor (Rattus norvegicus) | > 10 µM |

* * *

Target Entity: α1-adrenergic receptor
Test Name: Binding to the α1-adrenergic receptor (displacement of [3H]prazosin, rat cortex)
Set-up: species or system male Sprague-Dawley rat
Condition Parameters: mean of at least 3 experimentations

| Compound | pKi α1 |
| --- | --- |
| Cn1nc(N(C)[C@H]2CC[C@H](N3CCN(c4cccc(Cl)c4)CC3)CC2)c(=O)n(C)c1=O | 7.86 |
| COc1ccnc(N2CCN([C@H]3CC[C@H](Oc4cnn(C)c(=O)n4)CC3)CC2)n1 | 6.65 |
| Cn1ncc(O[C@H]2CC[C@H](N3CCN(c4nccc(Cl)n4)CC3)CC2)nc1=O | 6.21 |
| Cc1cc(C)nc(N2CCN([C@H]3CC[C@H](Oc4cnn(C)c(=O)n4)CC3)CC2)n1 | 5.72 |
| Cc1cc(C)nc(N2CCN([C@H]3CC[C@H](n4ncc(=O)n(C)c4=O)CC3)CC2)n1 | 5.89 |
| Cn1nc(N[C@H]2CC[C@H](N3CCN(c4cccc(Cl)c4)CC3)CC2)c(=O)n(C)c1=O | 7.74 |
| O=C1CC2(CCCC2)CC(=O)N1CCCCN1CCN(c2ncccn2)CC1 [Buspirone, reference compound] | 6.19 |
| Cc1ccnc(N2CCN([C@H]3CC[C@H](n4ncc(=O)n(C)c4=O)CC3)CC2)n1 | 6.10 |

* * *

Target Entity: 5-HT1A receptor (Rattus norvegicus, UniProt P19327)
Sequence (P19327 1-422): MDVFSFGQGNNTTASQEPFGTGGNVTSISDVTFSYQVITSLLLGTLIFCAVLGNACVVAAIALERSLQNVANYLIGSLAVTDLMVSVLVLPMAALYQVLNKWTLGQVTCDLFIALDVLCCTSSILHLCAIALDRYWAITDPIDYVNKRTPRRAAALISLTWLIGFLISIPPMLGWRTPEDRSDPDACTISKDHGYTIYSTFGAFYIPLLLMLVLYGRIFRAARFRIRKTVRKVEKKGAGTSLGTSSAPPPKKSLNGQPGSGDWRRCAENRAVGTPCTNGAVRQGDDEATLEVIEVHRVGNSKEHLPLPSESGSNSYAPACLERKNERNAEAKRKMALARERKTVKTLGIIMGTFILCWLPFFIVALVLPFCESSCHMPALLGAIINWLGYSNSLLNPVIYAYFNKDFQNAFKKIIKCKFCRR
Test Name: Binding to the 5-HT1A receptor (displacement of [3H]8-OH-DPAT, rat cortex)
Parameters: Brains from male Sprague-Dawley 180-200 g rats; tissue Iffa Credo, France (animals); host or cells: rat brain cortex; species or system male Sprague-Dawley rat
Condition Parameters: read-out: pKi 5-HT1A (converted)
Readout Name: log10(Ki) (log10 of the value in nM)

| Molecule | Readout Name | Test Result |
| --- | --- | --- |
| Cn1nc(N(C)[C@H]2CC[C@H](N3CCN(c4cccc(Cl)c4)CC3)CC2)c(=O)n(C)c1=O [Compound 19] | log10(Ki) | -0.71 |
| Cc1cc(C)nc(N2CCN([C@H]3CC[C@H](n4ncc(=O)n(C)c4=O)CC3)CC2)n1 [Compound 5] | log10(Ki) | -0.22 |
| O=C(NCCN1CCN(c2cccc3c2OC[C@H](CO)O3)CC1)c1ccc(F)cc1 [Flesinoxan, reference compound] | log10(Ki) | 0.09 |
| Cn1nc(N[C@H]2CC[C@H](N3CCN(c4cccc(Cl)c4)CC3)CC2)c(=O)n(C)c1=O [Compound 17] | log10(Ki) | -0.40 |
| COc1ccnc(N2CCN([C@H]3CC[C@H](Oc4cnn(C)c(=O)n4)CC3)CC2)n1 [Compound 13] | log10(Ki) | -0.28 |
| Cc1cc(C)nc(N2CCN([C@H]3CC[C@H](Oc4cnn(C)c(=O)n4)CC3)CC2)n1 [Compound 11] | log10(Ki) | -0.60 |
| Cc1ccnc(N2CCN([C@H]3CC[C@H](Oc4cnn(C)c(=O)n4)CC3)CC2)n1 [Compound 10] | log10(Ki) | -0.60 |
| Cn1ncc(O[C@H]2CC[C@H](N3CCN(c4ncccn4)CC3)CC2)nc1=O [Compound 9] | log10(Ki) | -0.15 |
| Cn1ncc(O[C@H]2CC[C@H](NCC3COc4ccccc4O3)CC2)nc1=O (relative stereo) [Compound 16] | log10(Ki) | -0.78 |
| Cc1ccnc(N2CCN([C@H]3CC[C@H](n4ncc(=O)n(C)c4=O)CC3)CC2)n1 [Compound 6] | log10(Ki) | -0.09 |
| Cn1ncc(O[C@H]2CC[C@H](N3CCN(c4nccc(Cl)n4)CC3)CC2)nc1=O [Compound 12] | log10(Ki) | -0.54 |
| Cn1c(=O)cnn([C@H]2CC[C@H](N3CCN(c4ncccn4)CC3)CC2)c1=O [Compound 4] | log10(Ki) | 0.57 |

* * *

Listing of recorded ED50 by entry.
Target Entity: 5-HT1A receptor (Rattus norvegicus, UniProt P19327)
Test Name: 5-HT syndrome (serotoninergic syndrome) in the male rat
Type: in vivo, male rat (Sprague-Dawley)
Set-up: carried out with the male rat (Sprague-Dawley); from tissue; host or cells: whole living rat (Sprague-Dawley)
Condition Parameters: FBP, po, read-out: ED50 FBP (flat body posture)
Readout Name: ED50 (mg/kg)

| Compound | Readout Name | Test Result |
| --- | --- | --- |
| Cn1ncc(O[C@H]2CC[C@H](NCC3COc4ccccc4O3)CC2)nc1=O (relative stereo) | ED50 | 0.31 |
| Cn1ncc(O[C@H]2CC[C@H](N3CCN(c4ncccn4)CC3)CC2)nc1=O | ED50 | 0.08 |
| Cn1ncc(O[C@H]2CC[C@H](N3CCN(c4nccc(C(F)(F)F)n4)CC3)CC2)nc1=O | ED50 | 0.31 |
| O=C(NCCN1CCN(c2cccc3c2OC[C@H](CO)O3)CC1)c1ccc(F)cc1 [Flesinoxan, reference compound] | ED50 | 1.25 |
| Cc1ccnc(N2CCN([C@H]3CC[C@H](Oc4cnn(C)c(=O)n4)CC3)CC2)n1 | ED50 | 0.08 |
| Cc1ccnc(N2CCN([C@H]3CC[C@H](n4ncc(=O)n(C)c4=O)CC3)CC2)n1 | ED50 | 0.08 |
| Cc1cc(C)nc(N2CCN([C@H]3CC[C@H](Oc4cnn(C)c(=O)n4)CC3)CC2)n1 | ED50 | 0.02 |
| Cn1ncc(O[C@H]2CC[C@H](N3CCN(c4ncc(F)cn4)CC3)CC2)nc1=O | ED50 | 1.25 |
